- Experimental System: dopamine (DA) transport (Rattus norvegicus, UniProt P23977)
- Sequence (P23977 whole entry): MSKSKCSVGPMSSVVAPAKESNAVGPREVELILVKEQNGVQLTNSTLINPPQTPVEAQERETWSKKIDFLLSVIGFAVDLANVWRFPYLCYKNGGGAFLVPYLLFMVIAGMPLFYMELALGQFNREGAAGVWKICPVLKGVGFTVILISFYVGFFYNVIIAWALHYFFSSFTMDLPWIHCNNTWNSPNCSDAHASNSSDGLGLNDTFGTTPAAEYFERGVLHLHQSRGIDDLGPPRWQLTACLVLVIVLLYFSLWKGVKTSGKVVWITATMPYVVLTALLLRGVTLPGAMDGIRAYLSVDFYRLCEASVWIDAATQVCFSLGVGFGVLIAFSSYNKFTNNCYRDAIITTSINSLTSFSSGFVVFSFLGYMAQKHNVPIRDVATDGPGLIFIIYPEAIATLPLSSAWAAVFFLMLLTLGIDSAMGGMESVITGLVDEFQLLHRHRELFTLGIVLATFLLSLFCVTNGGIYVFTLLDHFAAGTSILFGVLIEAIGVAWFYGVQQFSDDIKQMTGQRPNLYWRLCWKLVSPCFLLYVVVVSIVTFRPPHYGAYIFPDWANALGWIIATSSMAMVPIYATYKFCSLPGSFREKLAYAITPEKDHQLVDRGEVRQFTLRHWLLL
- Assay Notes: Inhibition of [3H]DA uptake in rat striatum synaptosomes
- Assay type: biochemical
- Parameters: synaptosomal preparations were made from either whole brain (5-HT), striatum (DA) or hypothalamus (NE); from tissue; host or cells: rat striatum synaptosomes
Reported Endpoint: pIC50
The meaning of pIC50 here: minus log10 of the concentration in molar units.

**Q:** Entry CNC1CCC2(c3ccc(Cl)c(Cl)c3)CC12 (centres unmarked) needs its pIC50 filled in; supply it.
**A:** 6.44

**Q:** For the compound Cc1ccc(C23CC2CCC3N(C)C)cc1 (centres unmarked) , give its reported pIC50.
**A:** 6.47

**Q:** Let me know recorded pIC50 for CNC1CCC2CC21c1ccc(Cl)c(Cl)c1 (centres unmarked) , thanks.
**A:** 8.52

**Q:** Item CNC1CCC2(c3ccc(C)cc3)CC12 (centres unmarked) : provide pIC50
**A:** 6.07

**Q:** Return pIC50 (reported value) for this compound: CN(C)C1CCC2CC21c1ccc(Cl)c(Cl)c1 (centres unmarked)
**A:** 8.05

---

- Experimental System: UniProtKB P31652
- Sequence (P31652 whole entry): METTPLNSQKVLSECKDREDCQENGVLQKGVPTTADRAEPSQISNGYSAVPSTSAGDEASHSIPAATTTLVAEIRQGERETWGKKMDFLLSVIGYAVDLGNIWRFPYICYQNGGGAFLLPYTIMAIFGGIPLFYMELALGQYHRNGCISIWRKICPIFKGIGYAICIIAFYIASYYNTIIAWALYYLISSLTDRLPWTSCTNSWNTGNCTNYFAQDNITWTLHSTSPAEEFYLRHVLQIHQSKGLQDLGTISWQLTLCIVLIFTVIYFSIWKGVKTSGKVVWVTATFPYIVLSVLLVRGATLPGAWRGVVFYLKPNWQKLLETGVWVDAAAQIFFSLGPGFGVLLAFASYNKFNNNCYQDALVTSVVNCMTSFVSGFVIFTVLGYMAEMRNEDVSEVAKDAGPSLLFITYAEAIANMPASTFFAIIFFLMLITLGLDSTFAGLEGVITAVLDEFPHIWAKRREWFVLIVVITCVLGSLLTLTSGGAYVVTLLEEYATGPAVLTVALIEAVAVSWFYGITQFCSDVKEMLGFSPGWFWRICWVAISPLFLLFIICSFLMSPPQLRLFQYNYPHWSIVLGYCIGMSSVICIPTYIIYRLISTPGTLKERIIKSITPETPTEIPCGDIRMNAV
- Assay Notes: Inhibition of [3H]5-HT uptake in rat whole brain synaptosomes
- Type: biochemical
- Cond: read-out: Uptake Inhibition % at 500 nM 5-HT
- Description: The effects of arylbicyclo[3.1.0]hexylamines of the invention for inhibiting transport of norepinephrine (NE) and/or dopamine (DA) and/or serotonin (5-HT) were evaluated using preparations of synaptosomes from different regions of the rat brain according to previously-reported techniques. […]
// thresholds for inhibition at 0.5 µM classes: low end = under 40%, middle = from 40% up to 80%, high end = 80% and over

**Q:** Category of Cc1ccc(C23CCC(N)C2C3)cc1 (centres unmarked) , please.
**A:** low end

**Q:** Each compound maps to one class by inhibition at 0.5 µM. Which class for CNC1CCC2CC21c1ccc(C)cc1 (centres unmarked) ?
**A:** low end

**Q:** Please report the category associated with NC1CC2CC2(c2ccc(Cl)c(Cl)c2)C1 (centres unmarked) , nothing else.
**A:** high end

**Q:** Input NC1C[C@H]2C[C@@]2(c2cccc3ccccc23)C1 (some centres unmarked) ; output its category
**A:** middle

**Q:** Any idea which band NC1CCC2CC12c1ccc(Cl)c(Cl)c1 (centres unmarked) is in?
**A:** low end

**Q:** State the band of Cc1ccc(C23CC(N(C)C)CC2C3)cc1 (centres unmarked)
**A:** middle

**Q:** Classify this compound: CN(C)C1CCC2CC21c1ccc(Cl)c(Cl)c1 (centres unmarked)
**A:** low end

**Q:** Dear colleague, I would appreciate it if you could identify the bin for NC1C[C@@H]2C[C@]2(c2ccc(Cl)c(Cl)c2)C1 (some centres unmarked) and reply at your convenience.
**A:** middle

**Q:** Class (by measured inhibition at 0.5 µM) for Cc1ccc(C23CCC(N(C)C)C2C3)cc1 (centres unmarked)
**A:** middle

**Q:** Form: Item = CNC1CCC2(c3ccc(Cl)c(Cl)c3)CC12 (centres unmarked) ; Class = ?
**A:** high end

**Q:** Class? Entry: CNC1CCC2(c3cccc4ccccc34)CC12 (centres unmarked)
**A:** high end

---

- Experimental System: norepinephrine (NE) transport (Rattus norvegicus, UniProt Q63380)
- Construct: synaptosomal preparations were made from either whole brain (5-HT), striatum (DA) or hypothalamus (NE); from tissue; host or cells: rat hypothalamus synaptosomes
- Sequence (Q63380 1-617): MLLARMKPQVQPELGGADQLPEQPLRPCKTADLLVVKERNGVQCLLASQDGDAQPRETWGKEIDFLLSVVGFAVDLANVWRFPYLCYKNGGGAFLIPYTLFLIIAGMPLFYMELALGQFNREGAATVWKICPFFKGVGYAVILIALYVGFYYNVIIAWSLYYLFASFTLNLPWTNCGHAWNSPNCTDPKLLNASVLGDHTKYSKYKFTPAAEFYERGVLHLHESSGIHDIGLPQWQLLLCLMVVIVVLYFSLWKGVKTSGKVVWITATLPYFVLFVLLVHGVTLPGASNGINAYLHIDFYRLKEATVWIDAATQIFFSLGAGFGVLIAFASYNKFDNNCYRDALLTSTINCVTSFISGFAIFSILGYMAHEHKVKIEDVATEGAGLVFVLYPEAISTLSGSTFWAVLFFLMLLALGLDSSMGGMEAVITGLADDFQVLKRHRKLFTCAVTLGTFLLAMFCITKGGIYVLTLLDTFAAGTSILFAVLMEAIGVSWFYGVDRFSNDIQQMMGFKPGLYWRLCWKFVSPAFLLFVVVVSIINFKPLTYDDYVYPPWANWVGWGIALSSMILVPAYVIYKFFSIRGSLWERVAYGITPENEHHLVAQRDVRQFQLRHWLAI
- Assay Notes: Inhibition of [3H]NE uptake in rat hypothalamus synaptosomes
- Type: biochemical
- Cond: read-out: Uptake Inhibition % at 500 nM NE
Provide the recorded inhibition at 0.5 µM for the entries that follow.
Supply the numeric figure in %, leaving out any unit text.

**Q:** Please report the measured inhibition at 0.5 µM for Cc1ccc(C23CCC(N)C2C3)cc1 (stereo not drawn)
**A:** 50

**Q:** Identify the reported inhibition at 0.5 µM for the following entry. NC1C[C@H]2C[C@@]2(c2cccc3ccccc23)C1 (stereo partly drawn)
**A:** 76

**Q:** Give the value of inhibition at 0.5 µM reported for the following: Cc1ccc(C23CC(N(C)C)CC2C3)cc1 (stereo not drawn)
**A:** 50

**Q:** Specify measured inhibition at 0.5 µM for Cc1ccc(C23CC2CCC3N)cc1 (stereo not drawn) [1-p-tolylbicyclo[3.1.0]hexan-2-amine] .
**A:** 14

**Q:** Provide only the value of recorded inhibition at 0.5 µM for Cc1ccc(C23CCC(N(C)C)C2C3)cc1 (stereo not drawn)
**A:** 57

**Q:** Note inhibition at 0.5 µM for the compound shown: CNC1CCC2CC21c1ccc(C)cc1 (stereo not drawn)
**A:** 8

# credit: patent US20080194696A1
